Recorded values, source a melting point compilation (Tetko et al.).

Property: melting point (°C)
Unit °C implied. Number only.

Solved cases below.
compound=O=NN(CCCl)C(=O)NCCCl property="melting point" endpoint_result=31
compound=CN(C)c1cccc2c(S(=O)(=O)F)cccc12 property="melting point" endpoint_result=52
compound=Cc1cc(C(C)(C)C)c(O)c(C)c1CC1=NCCN1 property="melting point" endpoint_result=182
compound=CC(C)(C)OC(=O)N[C@H](C(=O)O)c1ccc(F)cc1 property="melting point" endpoint_result=130
compound="CC(C)(C)NCC(O)COc1cccc2c1CC(O)C(O)C2 (stereo unspecified)" property="melting point" endpoint_result=124
compound="CC1CCC(C)(C(=O)COC(=O)c2ccccc2)C1(C)C (stereo unspecified)" property="melting point" endpoint_result=82
compound=CCOC(=O)C(=O)c1cc(C(=O)C(=O)OCC)c([N+](=O)[O-])cc1[N+](=O)[O-] property="melting point" endpoint_result=118
compound=O=Cc1cccc2cccnc12 property="melting point" endpoint_result=93
compound=CCCCCCCCCC(N)=O property="melting point" endpoint_result=108
compound=O=C(CCCN1CCC(n2c(=O)[nH]c3ccccc32)CC1)c1ccc(F)cc1 property="melting point" endpoint_result=170

Query string: What does the record list as melting point for Clc1ncnc2sc3c(c12)CCCC3 ?
Result string: 96

====

Entries and their measured melting point follow.

smiles_code=N#Cc1c(-c2cccs2)cc(-c2ccco2)[nH]c1=O property="melting point" endpoint_result="318 to 320 °C"
smiles_code=N#Cc1ccc(-c2ccc(C(F)(F)F)cn2)cc1 property="melting point" endpoint_result="123 to 124 °C"

// moving on: another record for melting point
Query string: Please look up its melting point: O=C(O)c1ccccc1Nc1cccc(F)c1
Result string: 158 to 163 °C

====

// reported melting point per item
Respond with the bare value in °C.

smiles_code=C[Si](C)(Cl)O[Si](C)(C)Cl property="melting point" unit_symbol=°C endpoint_result=-37.5
smiles_code=COc1c(Br)ccc(C)c1C(=O)O property="melting point" unit_symbol=°C endpoint_result=125

// switching to the query molecule
Query string: Requested field: melting point. Item: O=C(O)c1cc(-c2ccco2)on1
Result string: 151

====

Property: melting point

Look over these answered cases.
compound="CN1CCCC1C(O)(c1ccccc1)c1ccccc1 (stereo not drawn)" property="melting point" endpoint_result="66 to 69 °C"
compound=NCc1ccc2c(Br)cccc2c1 property="melting point" endpoint_result="111 to 112 °C"
compound=Cc1onc(-c2ccccc2)c1C=O property="melting point" endpoint_result="41 to 43 °C"

We now examine a further compound.
Query string: Returns the measured melting point for the input compound. Input: Cc1cc(I)c(C)cc1I
Result string: 103 to 104 °C

====

The following compounds are shown together with reported melting point values.

# annotated cases, reported melting point shown
compound="CN1C(=O)NC(=O)C(C)(C2=CCCCC2)C1=O (stereo not drawn)" property="melting point" endpoint_result="146 °C"
compound="CCC(/C(=N/Nc1ccc([N+](=O)[O-])cc1[N+](=O)[O-])c1ccc(OC)cc1)C1CCCCC1 (stereo not drawn)" property="melting point" endpoint_result="200 to 201 °C"

Query string: Value lookup for melting point; key = Cc1c(NN=C2C(=O)NN=C2c2c(O)c3ccccc3n(C)c2=O)c(=O)n(-c2ccccc2)n1C
Result string: 200 °C

Query string: Please look up its melting point: O=C(C=P(c1ccccc1)(c1ccccc1)c1ccccc1)OCc1ccccc1
Result string: 120 to 127 °C

Query string: Please report the recorded melting point for CN1CCCN(c2ccc(C=O)cc2)CC1 .
Result string: 44 to 46 °C

Query string: # input compound: O=c1[nH]c(=O)n(C2OC(CO)C(O)C2O)cc1F (stereo not drawn) ; wanted: its melting point
Result string: 180 to 183 °C

Query string: Using the record for CC(O)C(c1ccccc1)c1ccccc1 (stereo not drawn) , report its melting point.
Result string: 59 to 63 °C

Query string: For the compound CC1=NNC(=O)C1=NNc1cccc(F)c1 , what melting point is on record?
Result string: 218 °C

====

Property: melting point

molecule=Nc1ccc(S(=O)(=O)N2CCCCC2)cc1 endpoint_result="169 to 170 °C"

Query string: What value of melting point has been recorded for this entry: c1ccc2c(c1)ccc1nncn12
Result string: 175 to 177 °C

Query string: Please report the recorded melting point for CC(C)CC1=CC(=Cc2ccc(-c3ccc(Br)cc3)o2)C(=O)O1 .
Result string: 107 to 108 °C

Query string: Tell me the measured melting point of CCOP(=S)(Oc1ccc(C#N)cc1)c1ccccc1 (stereo unspecified) , please.
Result string: 83 °C

Query string: Query (molecule): CCCCCCCCCCCCCCCCCCCCCCCO ; field requested: melting point
Result string: 74 to 76 °C

Query string: Dear colleague, I am looking for the recorded melting point of the following molecule: O=C(c1ccccc1)C1CC1
Result string: 7 to 9 °C

Query string: May I ask what melting point has been recorded for O=S(=O)(Cl)c1ccc2c(c1)OCCO2 ?
Result string: 66 to 68 °C

Query string: melting point for OCCN1CCN(c2ncc(C(F)(F)F)cc2Cl)CC1 ?
Result string: 62 to 66 °C

Query string: Would you mind telling me what melting point value was observed for C=CCSc1nc(C)n[nH]1 ?
Result string: 88 to 90 °C

Query string: Field request: melting point | item: Cc1ccc2cc(Cl)c(Cl)cc2n1
Result string: 121 to 123 °C

Query string: melting point lookup needed for O=S(=O)(Cl)c1csc2ccccc12 , thanks.
Result string: 86 to 88 °C

====

This section presents molecules with their documented melting point values.

For orientation, consider the following solved cases.
smiles_code=C[C@](N)(CO)C(=O)O endpoint_result="286 to 288 °C"
smiles_code=N#CCC(=O)Nc1ccccc1 endpoint_result="198 to 202 °C"

Then this molecule:
Query string: GET /values?readout=melting point&item= O=C(C1CCNCC1)N1CCCCCC1
Result string: 41 to 47 °C

====

Returns: string. Value is Yes if measured melting point is below 100 °C, and No if it is greater than or equal to it.

Use the examples below as a reference point.
compound=NNC(=O)c1ccc(OCc2ccccc2)cc1 classification=No
compound="O=C1C=C2CC3(O)COc4c(ccc(O)c4O)C3=C2C=C1O (configuration not stated)" classification=No
compound=CCCCNC(=O)NS(=O)(=O)c1ccccc1 classification=No
compound=CC(/C=N/NC(N)=O)=N\NC(N)=O classification=No
compound=CCOc1ccc2nc(S(N)(=O)=O)sc2c1 classification=No

Query string: Given the entry CCOCOc1ccc(C(=O)Nc2cccc(Cl)c2Cl)cc1 , would its reported melting point be below 100 °C?
Result string: Yes

Query string: Criterion: melting point strictly below 100 °C. Is it met by C=CC1CN2CCC1CC2C12Nc3ccccc3C1(O)CCO2 (configuration not stated) ?
Result string: No

Query string: Please let me know if O=[N+]([O-])c1cc(C(F)(F)F)c(Cl)c([N+](=O)[O-])c1Nc1ncc(C(F)(F)F)cc1Cl shows melting point below 100 °C.
Result string: No

Query string: Is 100 °C strictly greater than the compound's reported melting point? compound: CCN(CC)c1ccc(N=C=S)cc1
Result string: Yes

Query string: melting point strictly < 100 °C for this compound? CN1C(=O)C=CC1=O
Result string: Yes

====

Decision: melting point compared against 100 °C; not below it gives YES, below it gives NO.

Query string: # check: melting point of O=Nc1ccc(C(=O)OC2Cc3ccccc32)cc1 (configuration not stated) is greater than or equal to 100 °C
Result string: YES

Query string: Say whether CCOC(=O)/C(=C\c1ccccc1)c1ccccc1[N+](=O)[O-] shows melting point of 100 °C or more.
Result string: NO

====

Listed compounds paired with reported melting point

compound=COc1cccc(C=Nn2c(C)cc(C)c(C#N)c2=O)c1O property="melting point" endpoint_result="209 to 212 °C"
compound=Cc1cc(C)nc(S)n1 property="melting point" endpoint_result="213 to 217 °C"
compound=O=C(O)C=Cc1cc([N+](=O)[O-])ccc1Sc1ccc(Cl)cc1 property="melting point" endpoint_result="212 to 215 °C"

Query string: Requested read-out: melting point. Entry: O=C(O)C1CC2CC1CCC2O (centres undefined)
Result string: 160 to 169 °C

====

Binary call on melting point: 1 (yes) from 200 °C upward, 0 (no) beneath that.

For orientation, consider the following solved cases.
molecule=Cc1nc2cc([N+](=O)[O-])ccc2s1 classification="0 (no)"
molecule=COC(=O)c1ccc(I)c([N+](=O)[O-])c1 classification="0 (no)"

Query string: Confirm if melting point reported for the molecule CCCCC(CC)COC(=O)OOC(C)(C)C (configuration not stated) is 200 °C or above.
Result string: 0 (no)

Query string: Textbook exercise: given the entry CC(C)CC(C)(N)C(=O)O (racemic) , state whether its melting point is greater than or equal to 200 °C.
Result string: 1 (yes)
